Documented T/C across a set of molecules
Test system: L1210 leukemia ip in BDF1 mice, survival T/C
assay.details: NCI In Vivo Anticancer Drug Screen. Data for tumor model L1210 Leukemia (intraperitoneal) in B6D2F1 (BDF1) mice
particulars: endpoint: mean survival time; dose: 100.0 mg/kg/injection; schedule: Q04DX003 (ip); vehicle: saline; higher = longer survival
Toxic doses and inconclusive results are not listed.
recorded.metric: T/C

# molecule, test.value
data = [
    ("CC(=O)N=C1CCCC1C#N (stereo not drawn)", "105 % of control"),
    ("CCN(CC)CCn1c2ccncc2c2cnccc21", "103 % of control"),
    ("CC(=NCc1ccccc1)C(C)(O)c1ccccc1 (stereo not drawn)", "97 % of control"),
]
